I'd appreciate it if you could supply protein stability index values for the items below.
B1: KRT18 (parent)
chain: RVRSLETENRRLESKIREHLEKKG

Variants of: B1
Test: protein stability index of a GFP-peptide fusion (GPS, HEK-293T) (PSI 1-6); higher = more stable;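 note: lentivirally expressed fusions sorted by FACS into six bins by GFP to DsRed ratio, PSI derived from sequencing read proportions per bin multiplied by bin number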
Settings: c terminus: a fixed tail appended
API doc: respond with a numeric literal and nothing else, no unit.

In: Output measured protein stability index for this item: `T7R`
Out: 4.1

In: Output measured protein stability index for this item: `T7V`
Out: 3.82

In: Output measured protein stability index for this item: `E6T`
Out: 3.01

In: Output measured protein stability index for this item: `L20A`
Out: 5.1

In: Output measured protein stability index for this item: `N9W`
Out: 1.85

In: Output measured protein stability index for this item: `S14Y`
Out: 4.24

In: Output measured protein stability index for this item: `R3D`
Out: 4.22

In: Output measured protein stability index for this item: `R11T`
Out: 4.94

In: Output measured protein stability index for this item: `E13S`
Out: 3.91

In: Output measured protein stability index for this item: `K22W`
Out: 3.02

In: Output measured protein stability index for this item: `V2Y`
Out: 4.54

In: Output measured protein stability index for this item: `R10S`
Out: 4.88

In: Output measured protein stability index for this item: `N9E`
Out: 4.97

In: Output measured protein stability index for this item: `R3G`
Out: 4.64

In: Output measured protein stability index for this item: `H19V`
Out: 4.49

In: Output measured protein stability index for this item: `R1I`
Out: 3.38

In: Output measured protein stability index for this item: `I16G`
Out: 5.45

In: Output measured protein stability index for this item: `R17L`
Out: 4.22

In: Output measured protein stability index for this item: `R1E`
Out: 3.5

In: Output measured protein stability index for this item: `R1M`
Out: 4.09

In: Output measured protein stability index for this item: `H19N`
Out: 4.78

In: Output measured protein stability index for this item: `G24M`
Out: 3.73

In: Output measured protein stability index for this item: `K23L`
Out: 3.87

In: Output measured protein stability index for this item: `G24Q`
Out: 4.14

In: Output measured protein stability index for this item: `G24R`
Out: 3.81

In: Output measured protein stability index for this item: `V2L`
Out: 3.55

In: Output measured protein stability index for this item: `R17C`
Out: 5.24

In: Output measured protein stability index for this item: `R11D`
Out: 5.08

In: Output measured protein stability index for this item: `G24W`
Out: 4.04

In: Output measured protein stability index for this item: `H19P`
Out: 5.53

In: Output measured protein stability index for this item: `R11G`
Out: 3.96

In: Output measured protein stability index for this item: `R10V`
Out: 5.08

In: Output measured protein stability index for this item: `L12Y`
Out: 4.91

In: Output measured protein stability index for this item: `E21K`
Out: 3.75

In: Output measured protein stability index for this item: `K22M`
Out: 3.73

In: Output measured protein stability index for this item: `E18P`
Out: 4.88

In: Output measured protein stability index for this item: `R11H`
Out: 4.91

In: Output measured protein stability index for this item: `E6C`
Out: 4.43

In: Output measured protein stability index for this item: `R10P`
Out: 5.08

In: Output measured protein stability index for this item: `E13W`
Out: 3.85

In: Output measured protein stability index for this item: `S4I`
Out: 2.97

In: Output measured protein stability index for this item: `K15M`
Out: 4.02

In: Output measured protein stability index for this item: `L5K`
Out: 3.99

In: Output measured protein stability index for this item: `E21W`
Out: 3.32

In: Output measured protein stability index for this item: `L20V`
Out: 4.94

In: Output measured protein stability index for this item: `R10M`
Out: 5.26

In: Output measured protein stability index for this item: `G24Y`
Out: 3.92

In: Output measured protein stability index for this item: `R3T`
Out: 4.46

In: Output measured protein stability index for this item: `T7F`
Out: 4.79

In: Output measured protein stability index for this item: `E21Q`
Out: 3.74

In: Output measured protein stability index for this item: `R1V`
Out: 4.19

In: Output measured protein stability index for this item: `S4Y`
Out: 3.3

In: Output measured protein stability index for this item: `I16W`
Out: 4.96

In: Output measured protein stability index for this item: `R11A`
Out: 4.43

In: Output measured protein stability index for this item: `G24C`
Out: 3.69

In: Output measured protein stability index for this item: `R10D`
Out: 4.3

In: Output measured protein stability index for this item: `H19D`
Out: 5.22

In: Output measured protein stability index for this item: `I16S`
Out: 5.16

In: Output measured protein stability index for this item: `I16E`
Out: 3.79

In: Output measured protein stability index for this item: `K23A`
Out: 4.56

In: Output measured protein stability index for this item: `R3A`
Out: 4.51

In: Output measured protein stability index for this item: `E8R`
Out: 3.46

In: Output measured protein stability index for this item: `L20R`
Out: 5.23

In: Output measured protein stability index for this item: `L12T`
Out: 5.22

In: Output measured protein stability index for this item: `S14E`
Out: 4.78

In: Output measured protein stability index for this item: `R1P`
Out: 4.45

In: Output measured protein stability index for this item: `S4F`
Out: 4.29

In: Output measured protein stability index for this item: `K22Y`
Out: 4.08

In: Output measured protein stability index for this item: `L5V`
Out: 5.01

In: Output measured protein stability index for this item: `E8C`
Out: 4.22

In: Output measured protein stability index for this item: `I16P`
Out: 5.28

In: Output measured protein stability index for this item: `E18F`
Out: 3.22

In: Output measured protein stability index for this item: `L20N`
Out: 4.78

In: Output measured protein stability index for this item: `H19T`
Out: 5.01
